Where do the numbers come from? From ChEMBL document CHEMBL1151695.

test system: Mus musculus; assay: Antiamnesic activity in scopolamine-induced mouse assessed as latency time to enter dark room in retention session at 0.1 mg/kg, ip treated 20 mins before training session by passive avoidance test; format: functional; conditions: route intraperitoneal
Measured attribute: Activity (s)
// note: answer is a bare numeric in s

Solved cases below.
So what does the record say about Activity for O=C1c2ccccc2C2CN(S(=O)(=O)c3ccc(F)cc3)CCN12 (centres undefined) ?
74.5

What value of Activity has been reported for the following molecule? CC(C)S(=O)(=O)Nc1ccc(N(C)C(=O)c2ccccc2)cc1
75.9

Consider the molecule shown here: CCC(=O)N[C@H]1CC[C@@H](NS(=O)(=O)c2ccc(F)cc2)CC1 What is its recorded Activity?
89.1

Others:
# lookup: Activity of CC(C)S(=O)(=O)Nc1ccc(N(C)S(=O)(=O)c2ccc(F)cc2)cc1
103.6

###

system: Mus musculus; assay: Antiamnesic activity in scopolamine-induced mouse assessed as latency time to enter dark room in training session at 0.01 mg/kg, ip treated 20 mins before training session by passive avoidance test; format: functional; settings: route intraperitoneal
Measured attribute: Activity (s)
Kindly answer with a numeric value in s, unit omitted.

# annotated cases, reported Activity shown
I am curious: what Activity value has been reported for CC(C)S(=O)(=O)N(C)c1ccc(N(C)S(=O)(=O)c2ccc(F)cc2)cc1 ?
18.8

Find the recorded Activity belonging to CC(C)S(=O)(=O)N(C)c1ccc(NC(=O)c2ccccc2)cc1 and report it.
20.6

What measured Activity goes with CC(=O)NC1CCN(S(=O)(=O)c2ccc(F)cc2)CC1 [SAPUNIFIRAM] ?
14.5

Now let's try a different one.
For CC(C)S(=O)(=O)N(C)c1ccc(N(C)C(=O)c2ccccc2)cc1 , what is its reported Activity?
20.7

###

test system: Mus musculus; assay: Effect on passive avoidance in mouse assessed as latency time to enter dark room in retention session at 1.0 mg/kg, ip treated 20 mins before training session; format: functional; conditions: route intraperitoneal
A collection of compounds and their measured Activity

Worked set:
What does the data say about its Activity? Entry: CC(C)S(=O)(=O)N(C)c1ccc(N(C)C(=O)c2ccccc2)cc1
123.6 s

State the recorded Activity for this entry: CC(C)S(=O)(=O)N(C)c1ccc(N(C)S(=O)(=O)c2ccc(F)cc2)cc1
158.6 s

Recorded Activity of CC(C)S(=O)(=O)Nc1ccc(NC(=O)c2ccccc2)cc1 , please.
116.7 s

Let's switch to this compound now.
Recorded Activity for CC(C)S(=O)(=O)Nc1ccc(N(C)S(=O)(=O)c2ccc(F)cc2)cc1 , please?
149.8 s
